# testTarget: OXA-163 (Klebsiella pneumoniae, UniProt Q6XEC0, DEL214-217/S212D)
# protocolSummary: Steady-state enzyme kinetics of substrate hydrolysis by OXA-163
# Assay type: biochemical, Klebsiella pneumoniae and Enterobacter cloacae
# experimentalParameters: OXA-163; 30°C, 50 mM sodium phosphate pH 7.2, 15 mM sodium bicarbonate
recordedMetric: kcat

- cpdSmiles: "C[C@@H](O)[C@H]1C(=O)N2C(C(=O)O)=C(S[C@@H]3CN[C@H](CNS(N)(=O)=O)C3)[C@H](C)[C@H]12"
  dataValue: "0.018 ± 0.001 s⁻¹"
- cpdSmiles: "C[C@@H](O)[C@H]1C(=O)N2C(C(=O)O)=C(S[C@@H]3CN[C@H](C(=O)N(C)C)C3)[C@H](C)[C@H]12"
  dataValue: "0.021 ± 0.001 s⁻¹"

Consider the record given below.
### Prompt Lab note: record kcat of "C[C@@H](O)[C@H]1C(=O)N2C(C(=O)O)=C(SCCN=CN)C[C@H]12" tested on OXA-163 (Klebsiella pneumoniae, UniProt Q6XEC0, DEL214-217/S212D).
### Response 0.004 ± 0.001 s⁻¹

Values compiled from paper PMC5123777.
